Kindly supply the reported human MASP2 IC50 (FRET substrate cleavage, enzyme activity) values for the records listed here.
Target: Recombinant human MASP2 active protease (amino acids 297-686, C-terminal His Tag) (human, UniProt O00187 297-686)
Sequence (O00187 other isoform, or with tags, fused parts or gaps limits assumed): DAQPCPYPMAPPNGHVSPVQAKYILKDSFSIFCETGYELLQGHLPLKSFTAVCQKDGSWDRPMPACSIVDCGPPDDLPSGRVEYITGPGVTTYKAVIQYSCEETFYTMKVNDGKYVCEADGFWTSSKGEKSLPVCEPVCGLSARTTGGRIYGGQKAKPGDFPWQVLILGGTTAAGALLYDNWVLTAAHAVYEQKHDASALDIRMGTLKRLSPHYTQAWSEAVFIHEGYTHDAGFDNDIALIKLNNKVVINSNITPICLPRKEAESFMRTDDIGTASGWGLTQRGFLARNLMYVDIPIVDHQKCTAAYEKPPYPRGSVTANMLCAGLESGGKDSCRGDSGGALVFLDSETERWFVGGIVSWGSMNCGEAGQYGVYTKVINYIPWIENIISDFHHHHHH
Test: cell-based or functional assay
Bridge positions count the residues as written; N and C are the ends. Ends that are not written are not given here.
Form entry: value (nM) — number only.

Q: Which human MASP2 IC50 (FRET substrate cleavage, enzyme activity) is listed for AICSRSLPPICIPD-NH2 (disulfide 3-11; also: TFA salt) [Ala-1 SFMI-1 amide, AIC+SRSLPPIC+IPD-NH2 (Reference No B)] ?
Result: 390

Q: What value of human MASP2 IC50 (FRET substrate cleavage, enzyme activity) has been recorded for this entry: GICSRSLPPICIPD-OH (disulfide 3-11; also: TFA salt) [SFMI-1, GIC+SRSLPPIC+IPD-OH (Reference No 1)]
Result: 1090

Q: I have this binder here, AICSRSLPPICIPD-OH (disulfide 3-11; also: TFA salt) [Ala-1 SFMI-1, AIC+SRSLPPIC+IPD-OH (Reference No A)] , and I need its recorded human MASP2 IC50 (FRET substrate cleavage, enzyme activity).
Result: 914

Q: Query: human MASP2 IC50 (FRET substrate cleavage, enzyme activity); subject: GICSRSLPPICIPD-OH (disulfide 3-11; also: HCl salt) [SFMI-1 HCl, GIC+SRSLPPIC+IPD-OH (HCl Salt) (Reference No 2)]
Result: 610

Q: Would you mind telling me what human MASP2 IC50 (FRET substrate cleavage, enzyme activity) value was observed for GICSRSLPPICIPD-NH2 (disulfide 3-11; also: TFA salt) [SFMI-1 amide, GIC+SRSLPPIC+IPD-NH2 (Reference No 3)] ?
Result: 610

Q: Any idea what human MASP2 IC50 (FRET substrate cleavage, enzyme activity) was measured for AICSRSLPPICIPD-NH2 (disulfide 3-11; also: HCl salt) [Ala-1 SFMI-1 HCl amide, AIC+SRSLPPIC+IPD-NH2 (HCl Salt) (Reference No C)] ?
Result: 3000
